target: NLRP3 inflammasome (Homo sapiens); construct: endogenous in cells; experiment: THP-1 IL-1β production inhibition test; details: PMA-treated THP-1 cells, LPS 50 ng/mL + ATP 5 mM, 2 hours, IL-1β in supernatant by ELISA
Sequence (Q96P20 whole entry): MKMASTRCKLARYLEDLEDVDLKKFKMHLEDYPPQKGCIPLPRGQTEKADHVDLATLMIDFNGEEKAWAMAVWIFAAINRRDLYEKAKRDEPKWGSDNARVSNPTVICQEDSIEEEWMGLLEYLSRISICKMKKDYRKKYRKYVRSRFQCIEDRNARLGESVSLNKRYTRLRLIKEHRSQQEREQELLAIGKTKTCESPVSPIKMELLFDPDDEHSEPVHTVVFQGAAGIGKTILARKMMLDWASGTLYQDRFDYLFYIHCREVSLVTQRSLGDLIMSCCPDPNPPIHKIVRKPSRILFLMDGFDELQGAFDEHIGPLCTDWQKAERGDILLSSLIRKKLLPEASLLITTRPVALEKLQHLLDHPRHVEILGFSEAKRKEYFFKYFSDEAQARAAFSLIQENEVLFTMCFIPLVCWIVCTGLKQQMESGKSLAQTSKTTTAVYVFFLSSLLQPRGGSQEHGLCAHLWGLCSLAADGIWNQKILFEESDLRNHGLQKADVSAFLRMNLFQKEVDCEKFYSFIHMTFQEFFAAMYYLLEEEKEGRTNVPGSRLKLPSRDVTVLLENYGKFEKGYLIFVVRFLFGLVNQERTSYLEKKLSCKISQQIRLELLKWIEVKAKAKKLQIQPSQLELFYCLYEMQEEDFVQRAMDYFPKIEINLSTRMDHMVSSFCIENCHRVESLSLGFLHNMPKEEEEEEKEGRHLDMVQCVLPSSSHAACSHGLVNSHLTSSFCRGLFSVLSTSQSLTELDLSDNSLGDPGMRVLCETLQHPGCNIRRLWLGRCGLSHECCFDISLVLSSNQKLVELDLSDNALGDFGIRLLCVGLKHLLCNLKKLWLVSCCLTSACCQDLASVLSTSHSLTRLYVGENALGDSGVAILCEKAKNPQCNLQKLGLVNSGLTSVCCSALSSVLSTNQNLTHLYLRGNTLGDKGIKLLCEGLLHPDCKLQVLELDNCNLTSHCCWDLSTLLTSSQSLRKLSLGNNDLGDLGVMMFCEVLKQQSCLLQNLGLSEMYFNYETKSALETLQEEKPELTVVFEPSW
Structures can show the parent of a compound that is named as a salt.
measurementName: log10 of IC50 (log10 of the value in nM)
All values: base-10 log of IC50 in nM.

[in] Tell me log10 of IC50 reported for Oc1cc(C(F)(F)F)ccc1-c1nnc(N[C@@H]2CCCC[C@H]2O)c2c1COCCC2 [108(1)]
[out] 1.43

[in] Tell me log10 of IC50 reported for C[C@]1(O)C[C@@H](Nc2nnc(-c3ccc(C(F)(F)F)cc3O)c3c2CCCC3)C1 [Example 29]
[out] 1.26

[in] Tell me log10 of IC50 reported for C[C@@H](O)CCc1nnc(-c2ccc(C(F)(F)F)cc2O)c2c1CCCC2 [Example 20]
[out] 1.34

[in] Tell me log10 of IC50 reported for COc1ccc(-c2nnc(N[C@@H]3CCCC[C@@]3(C)O)c3c2CCCC3)c(O)c1 [Example 58]
[out] 1.94

[in] Tell me log10 of IC50 reported for C[C@@H](O)CNc1nnc(-c2ccc(C(F)(F)F)cc2C(F)(F)F)c2c1CCC2 [Example 8]
[out] 2.32

[in] Tell me log10 of IC50 reported for Oc1cc(C(F)(F)F)ccc1-c1nnc(N[C@@H]2CCCC[C@H]2O)c2c1CCCC2 [Example 134, monohydrochloride]
[out] 0.66

[in] Tell me log10 of IC50 reported for Oc1cc(C(F)(F)F)ccc1-c1nnc(N[C@@H]2CCCC[C@H]2O)c2c1CCC1(COC1)C2 [Example 107]
[out] 0.56

[in] Tell me log10 of IC50 reported for CN1CCC[C@@H](Oc2nnc(-c3ccc(C(F)(F)F)cc3O)c3ccccc23)C1 [Example 67]
[out] 1.11

[in] Tell me log10 of IC50 reported for Oc1cc(C(F)(F)F)ccc1-c1nnc(N[C@@H]2CCCC[C@@H]2O)c2c1COCC2 [4(2)]
[out] 1.18

[in] Tell me log10 of IC50 reported for CN1CCC[C@@H](Nc2nnc(-c3ccc(OC(F)F)cc3O)c3c2CCOC3)C1 [Example 120]
[out] 0.00

[in] Tell me log10 of IC50 reported for Oc1cc(C(F)(F)F)ccc1-c1nnc(N[C@@H]2CCOC[C@H]2O)c2c1COCC2 [101(2)]
[out] 0.93

[in] Tell me log10 of IC50 reported for Oc1cc(OC(F)(F)F)ccc1-c1nnc(N[C@@H]2CCCC[C@H]2O)c2c1CCOC2 [Example 135, monohydrochloride]
[out] 0.46

[in] Tell me log10 of IC50 reported for CN1CCC[C@@H](Nc2nnc(-c3ccc(C(F)(F)F)cc3O)c3c2CSC3)C1 [Example 121]
[out] 0.93

[in] Tell me log10 of IC50 reported for Oc1cc(C(F)(F)F)ccc1-c1nnc(N[C@H]2CCC(F)(F)C2)c2ccccc12 [Example 11]
[out] 1.20

[in] Tell me log10 of IC50 reported for C[C@@H](O)CNc1nnc(-c2ccc(C(F)(F)F)cc2C(F)(F)F)c2c1CN(C)CC2 [Example 74]
[out] 3.15

[in] Tell me log10 of IC50 reported for C[C@@]1(O)CCCC[C@H]1Nc1nnc(-c2ccc(OC(F)(F)F)cc2O)c2c1CCCC2 [Example 54]
[out] 1.32
